experiment: Half life in one-compartment pharmacodynamic system administered at simulated oral dose regimen of 500 mg in human for 10 days; type: ADME, organism-based
quantity: half-life (h)
One number for each entry, in h.

C[C@H]1COc2c(N3CCN(C)CC3)c(F)cc3c(=O)c(C(=O)O)cn1c23.C[C@H]1COc2c(N3CCN(C)CC3)c(F)cc3c(=O)c(C(=O)O)cn1c23.O [LEVOFLOXACIN] has a reported half-life of 7
